Test system: NCI-H522 lung
assay protocol: NCI tumour cell line growth inhibition, 48 h

{"molecule": "Oc1ccc(O)c(-c2cn3c(n2)SCC3)c1", "modifier": ">", "TGI / µM": 100}
{"molecule": "COc1ccc(C#Cc2ccc(=O)oc2-c2cc(OC)c(OC)c(OC)c2)cc1O", "modifier": "=", "TGI / µM": 22.3}
{"molecule": "COc1cc2c(cc1OC)C1C(=O)c3c(O)cc4c(c3OC1CO2)C=CC(C)(C)O4 (stereo not given)", "modifier": "=", "TGI / µM": 5.45}
{"molecule": "O=C(CCl)NCCNc1nccc(Nc2ccc(S(=O)(=O)Nc3ccccn3)cc2)n1", "modifier": "=", "TGI / µM": 3.98}
{"molecule": "CCCc1n(Cc2ccc3ccccc3c2)cc[n+]1Cc1ccc2ccccc2c1", "modifier": "=", "TGI / µM": 1.69}

---

Listing: TGI of selected compounds
Tested on: OVCAR-8 ovarian
assay protocol: NCI tumour cell line growth inhibition, 48 h
measured property: TGI

{"compound": "COC1C(O)CC(OC2CC(OC3CC(O[C@@H]4C(=O)c5c(cc6cc(OC7CC(OC8CC(O)C(O)C(C)O8)C(O)C(C)O7)c(C)c(O)c6c5O)CC4[C@H](OC)C(=O)O)OC(C)C3O)OC(C)C2O)OC1C (some centres not stated)", "result": "> 33.3 µM"}
{"compound": "O=c1[nH]c2ccccc2c2nc3ccccc3n12", "result": "> 100 µM"}
{"compound": "O=C(O)[C@H](Cc1c[nH]c2ccccc12)N1C(=O)c2ccccc2C1=O", "result": "> 100 µM"}
{"compound": "Oc1ccc(Nc2ccc3ccccc3c2)cc1", "result": "56.7 µM"}
{"compound": "Cc1cc(Cl)nc2nc(Cl)c(N)cc12", "result": "8.55 µM"}
{"compound": "CCNC(=O)c1cc(Cl)ccc1NC(=O)C12CC3CC(CC(C3)C1)C2", "result": "> 100 µM"}
{"compound": "N#CC(/C(CCC(=O)Nc1ccc(Cl)cc1)=N/NC(=O)c1cc2ccccc2cc1O)c1ccccc1 (configuration not stated)", "result": "> 100 µM"}
{"compound": "NCCc1ccc(S(=O)(=O)F)cc1", "result": "> 100 µM"}
{"compound": "OCC1COc2cc(Cl)c(Cl)cc2O1 (configuration not stated)", "result": "> 10 µM"}
{"compound": "O=C(Nc1ccc(Cc2ccccc2)cc1)Nc1nn(C(=O)Nc2ccc(Cc3ccccc3)cc2)c2ccccc12", "result": "> 100 µM"}
{"compound": "C=CCNC(=S)N1CC(C)C(=O)Nc2cc(Cl)ccc21 (configuration not stated)", "result": "> 100 µM"}
{"compound": "O=C1c2ccccc2C(=O)N1CCSCC(CO)SCCN1C(=O)c2ccccc2C1=O (configuration not stated)", "result": "> 100 µM"}
{"compound": "Cc1ccc2oc(=O)cc(/C(=C3/C=CC=N3)c3ccc[nH]3)c2c1", "result": "1.07 µM"}
{"compound": "Cc1nc(SCC(=O)Nc2ccc(Cl)cc2)c2sc(=S)n(-c3ccccc3)c2n1", "result": "> 10 µM"}
{"compound": "COc1ccc2c(c1)c(-c1nc(-c3c[nH]c4ncccc34)cs1)cn2CCCN1CCCCC1", "result": "3.76 µM"}
{"compound": "O=S(=O)(CCN1CCOCC1)Nc1cc(-c2ccc3ncnc(Nc4ccc(F)c(Cl)c4)c3c2)cnc1Cl", "result": "31.2 µM"}
{"compound": "CSC(=NC#N)S/C=C/C(=O)c1ccccc1", "result": "> 100 µM"}
{"compound": "O=C(CC1(O)C(=O)N(Cc2ccccc2)c2ccc(Cl)cc21)c1ccc(C(=O)NCC2CCC3(CC2)OOC2(CCCCC2)OO3)cc1 (configuration not stated)", "result": "0.758 µM"}
{"compound": "O=C(CCl)NCCNc1nccc(Nc2ccc(S(=O)(=O)Nc3ccccn3)cc2)n1", "result": "> 100 µM"}
{"compound": "CO[C@H]1C=CO[C@@]2(C)Oc3c(C)c(O)c4c(O)c(c(CN5CCN(C)CC5)c(O)c4c3C2=O)NC(=O)/C(C)=C\\C=C[C@H](C)[C@H](O)C(C)[C@@H](O)C(C)[C@H](OC(C)=O)[C@@H]1C (some centres not stated)", "result": "> 100 µM"}
{"compound": "O=C(O)C[C@@H](Cl)[C@H](NC(=O)OCc1ccccc1)C(=O)O", "result": "> 100 µM"}
{"compound": "Clc1cccc(-c2sc(-c3ccsc3)cc2Cc2ccsc2)c1", "result": "> 10 µM"}
{"compound": "CC(C)C(=O)N1Cc2cc(Cl)cc(Cl)c2OC(=O)c2ccccc21", "result": "> 100 µM"}
{"compound": "O=[N+]([O-])C(/C=C(\\Cl)[N+](=O)[O-])=C1Nc2ccccc2N1", "result": "> 100 µM"}
{"compound": "COc1cc(C)c(/C=C2/N=C(c3ccccc3)OC2=O)c([N+](=O)[O-])c1OC", "result": "> 100 µM"}
{"compound": "BrC(Br)=C1C(=C(Br)Br)C(Br)C1Br (configuration not stated)", "result": "5.46 µM"}
{"compound": "CC/C=C\\C[C@H](F)C/C=C1/C(=O)C=C[C@@H]1C/C=C\\CCCC(=O)OC", "result": "12.2 µM"}
